Each item that follows carries a reported Kd.
target system: T1, human FOLR1 recombinant protein (extracellular domain of human folate receptor alpha) (human, UniProt P15328 25-233)
T1 construct: Bought recombinant protein (Sino Biological); also called hFOLR1; FR-alpha
T1 sequence (P15328 25-233): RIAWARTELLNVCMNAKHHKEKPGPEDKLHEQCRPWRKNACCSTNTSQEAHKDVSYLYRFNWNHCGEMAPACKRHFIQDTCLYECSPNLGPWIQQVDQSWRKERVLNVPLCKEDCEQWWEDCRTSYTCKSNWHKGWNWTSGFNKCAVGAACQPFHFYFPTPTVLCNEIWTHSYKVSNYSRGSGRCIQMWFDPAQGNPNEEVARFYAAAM
method description: SPR (Biacore T200), single cycle kinetics, human FOLR1 immobilized on CM5, untagged VHH as analyte, 1:1 fit

Lookup: Give reported Kd value for untagged N64S variant of VHH A1 (VHH, also called A1-N64S) VHH: DVQLVESGGGLVQPGGSLRLSCAASESIFSRNHMSWYRQAPGKQRELAAIITSDGSTNYPDSVKGRFTISRDNAKNTVYLQMNSLKPEDTAVYYCNTFGRSVAGFYDYWGQGTQVTVSS
Found: 0.057 nM

Lookup: Give reported Kd value for untagged N64E variant of VHH A1 (VHH, also called A1-N64E) VHH: DVQLVESGGGLVQPGGSLRLSCAASESIFSRNHMSWYRQAPGKQRELAAIITSDGETNYPDSVKGRFTISRDNAKNTVYLQMNSLKPEDTAVYYCNTFGRSVAGFYDYWGQGTQVTVSS
Found: 0.092 nM

Lookup: Give reported Kd value for untagged N64Q variant of VHH A1 (VHH, also called A1-N64Q) VHH: DVQLVESGGGLVQPGGSLRLSCAASESIFSRNHMSWYRQAPGKQRELAAIITSDGQTNYPDSVKGRFTISRDNAKNTVYLQMNSLKPEDTAVYYCNTFGRSVAGFYDYWGQGTQVTVSS
Found: 0.036 nM

Lookup: Give reported Kd value for untagged K29Q-E90Q variant of VHH A2 (VHH, also called A2-K29Q-E90Q) VHH: DVQLVESGGGLVQAGGSLRLSCAADEMQFSNYDLAWYRRAPGKQRELAAIITSGGSTNYPDSVKGRFTISRDNAKNTVYLQMNSLKPEDTAVYYCNALRPWPQFSDYWGQGTQVTVSS
Found: 0.27 nM
